tested on: HCT-15 colon; test: NCI tumour cell line growth inhibition, 48 h
measurement_type: TGI

As a guide, the following entries are already answered.
Cc1cccc(N=Nc2ccc(O)c(CN(C)C)c2)c1    80.6 µM
CC#CC#C/C=C1/C=CC2(CCCCO2)O1 (centres undefined)    > 100 µM
CC(C)(C)c1ccc(OCCOc2ccc(C(C)(C)C)cc2NC=O)c(NC=O)c1    26.4 µM
N#Cc1ccccc1C#C/C=C\C#Cc1ccccn1    70 µM
Nc1ccc(Oc2ccc(C34CC5CC(C3)CC(c3ccc(Oc6ccc(N)c(O)c6)cc3)(C5)C4)cc2)cc1O    4.37 µM

Consider the molecule CN(C)CCNC(=O)c1cccc2c(NC(CCCN=C(N)N)C(=O)O)c3ccccc3nc12 (centres undefined) and give its measured TGI.
> 100 µM

Consider the molecule O=c1oc2c(Cl)cc(Cl)cc2cc1-c1cn2c(n1)sc1ccccc12 and give its measured TGI.
> 100 µM

Consider the molecule Nc1ncnc2c1ncn2Cc1ccc(CCl)cc1 and give its measured TGI.
41.5 µM

Consider the molecule Nc1ccc2ncc(NCc3ccc(F)cc3)nc2c1 and give its measured TGI.
> 100 µM

Consider the molecule CCN1C(=O)N(CC)C2C1NN=c1s/c(=C\c3ccc(Br)cc3)c(=O)n12 (centres undefined) and give its measured TGI.
> 100 µM

Consider the molecule O=C(NNC(=O)/C(=C/c1cccc([N+](=O)[O-])c1)NC(=O)c1ccccc1)Nc1ccc(Cl)cc1 and give its measured TGI.
24.7 µM

Consider the molecule Cn1c(SCc2ccc([N+](=O)[O-])cc2)nnc1C12CC3CC(CC(C3)C1)C2 and give its measured TGI.
> 10 µM

Consider the molecule Cc1cc(C2CC(O)C(CO)O2)c(Br)cc1Br (centres undefined) and give its measured TGI.
> 100 µM

Consider the molecule COc1ccc(COc2ccc(Cc3cnc(N)nc3N)cc2OC)cc1 and give its measured TGI.
> 25 µM

Consider the molecule CCCCCCCCC/C=C1/CC(CO)(COC(=O)C2CCCCC2)OC1=O (centres undefined) and give its measured TGI.
> 100 µM

----------
Entries and their measured TGI follow.
system: OVCAR-3 ovarian; assay: NCI tumour cell line growth inhibition, 48 h

COc1cccc2c1CCc1sc(CN3CCN(C)CC3)nc1-2    > 100 µM
O=C(NC1CCCCC1)N1CCNC1=S    > 100 µM

Now take the following molecule into account.
Consider the molecule CN1CN(c2ccccc2)C2(CCN(C(=O)OC(C)(C)C)CC2)C1=O and give its measured TGI.
> 100 µM

----------
test system: COLO 205 colon; assay: NCI tumour cell line growth inhibition, 48 h
measurement_type: TGI

As a guide, the following entries are already answered.
O=C1C2=C(c3ccccc31)C(c1ccc([N+](=O)[O-])cc1)NC(=S)N2 (configuration not stated)    > 100 µM
O=C1C2Cc3ccccc3CN2C(=O)N1CN1CCCCC1 (configuration not stated)    > 100 µM
OC[C@@H](O)[C@H](O)[C@H](O)[C@@H](O)C1SCCCS1    > 100 µM
CN1CN(c2ccccc2)C2(CCN(C(=O)OC(C)(C)C)CC2)C1=O    > 100 µM
CSCCC(NOC(=O)Cc1ccccc1)P(=O)(O)c1ccccc1 (configuration not stated)    > 100 µM
Cc1c2cc[n+](C)cc2c(C)c2c1[nH]c1ccc(OC(C)(C)C)cc12    > 100 µM

Consider the molecule CC(C)(C)c1cc([Si](C)(C)C)c(C#N)c([Si](C)(C)C)c1 and give its measured TGI.
> 100 µM

Consider the molecule C[C@]12CC[C@@H]3c4cc(C=O)c(OCc5ccccc5)cc4CC[C@H]3[C@@H]1CCC2OCc1ccccc1 (some centres not stated) and give its measured TGI.
> 100 µM

Consider the molecule CC(=O)Nc1ccc2c(c1)[nH]c(=O)c1cc(NC(C)=O)ccc12 and give its measured TGI.
> 100 µM

Consider the molecule C=CCNc1nc2c(N)ncnc2s1 and give its measured TGI.
> 10 µM

Consider the molecule CC1=NN(c2ccccc2)C(=O)C1N=Nc1ccc(Br)cc1C (configuration not stated) and give its measured TGI.
> 100 µM

Consider the molecule COc1ccc(C2=Nn3c(nc4sc5c(c4c3=O)CCCC5)SC2)cc1 and give its measured TGI.
> 100 µM
